src = patent US10703733B2

Target: MCL-1/Bim interaction (recombinant human MCL-1 protein, residues 171-327; biotinylated human Bim peptide, residues 51-76) (Homo sapiens (Human), UniProt Q07820)
Sequence (Q07820 171-327): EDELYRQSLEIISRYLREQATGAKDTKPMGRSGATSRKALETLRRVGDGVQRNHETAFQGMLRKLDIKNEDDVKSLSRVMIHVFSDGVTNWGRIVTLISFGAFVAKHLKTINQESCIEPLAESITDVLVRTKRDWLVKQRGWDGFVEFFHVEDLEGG
Assay: MCL-1/Bim Binding AlphaLISA Assay
Details: 0.0625 nM 6xHis-Mcl-1 (171-327), 0.0625 nM biotinylated-Bim peptide
Property measured: IC50 (pM)
Response body: numeric value in pM, unit text excluded.

# example entries with known answers
# Compound, IC50, pM
data = [
    ("COc1nn(C)cc1C(=O)NS1(=O)=NC(=O)c2ccc3c(c2)N(C[C@@H]2CC[C@H]2[C@@H](OC)/C=C/[C@H](OC(=O)CCc2ccccc2)[C@H](C)C1)C[C@@]1(CCCc2cc(Cl)ccc21)CO3 (single isomer, unassigned) [Example 378]", 1150),
    ("COc1c(C(=O)N[S@@]2(=O)=NC(=O)c3ccc4c(c3)N(C[C@@H]3CC[C@H]3[C@@H](OC)/C=C/C[C@H](C)C2)C[C@@]2(CCCc3cc(Cl)ccc32)CO4)cn2c1COCC2 [Example 191]", 103),
]

Now turn to the next compound.
Summary for this compound, COc1nn(C)cc1C(=O)N[S@@]1(=O)=NC(=O)c2ccc3c(c2)N(C[C@@H]2CC[C@H]2[C@@H](OC)/C=C/[C@H](OCCN2CCOCC2)[C@H](C)C1)C[C@@]1(CCCc2cc(Cl)ccc21)CO3 [Example 295] : IC50 is 40

* * *

As shown below, each of these compounds has a reported pIC50 value.
Target: MCL-1/Bim interaction (recombinant human MCL-1 protein, residues 171-327; biotinylated human Bim peptide, residues 51-76) (Homo sapiens (Human))
Assay: MCL-1/Bim Binding AlphaLISA Assay
Conditions: 0.0625 nM 6xHis-Mcl-1 (171-327), 0.0625 nM biotinylated-Bim peptide
pIC50 field: float, defined as -log10 of concentration (mol/L).

# example entries with known answers
# Compound, Result
measured = [
    ("COC[C@@H]1Cn2cc(C(=O)N[S@@]3(=O)=NC(=O)c4ccc5c(c4)N(C[C@@H]4CC[C@H]4[C@@H](O)/C=C/C[C@H](C)C3)C[C@@]3(CCCc4cc(Cl)ccc43)CO5)cc2CO1 [Example 326]", 10.12),
    ("COC(=O)N1CCC(OCC(=O)N[S@@]2(=O)=NC(=O)c3ccc4c(c3)N(C[C@@H]3CC[C@H]3[C@@H](OC)/C=C/C[C@H](C)[C@H]2C)C[C@@]2(CCCc3cc(Cl)ccc32)CO4)CC1 [Example 418]", 9.71),
    ("CO[C@H]1/C=C/CCC[S@@](=O)(NC(=O)CCn2ccc(C)n2)=NC(=O)c2ccc3c(c2)N(C[C@@H]2CC[C@H]21)C[C@@]1(CCCc2cc(Cl)ccc21)CO3 [Example 59]", 10.00),
    ("CO[C@H]1/C=C/C[C@H](C)C[S@@](=O)(NC(=O)c2cc3n(c2)C(=O)CCC3)=NC(=O)c2ccc3c(c2)N(C[C@@H]2CC[C@H]21)C[C@@]1(CCCc2cc(Cl)ccc21)CO3 [Example 145]", 10.43),
]

Summary for this compound, CO[C@H]1/C=C/CCC[S@@](=O)(NC(=O)CCc2cccnc2)=NC(=O)c2ccc3c(c2)N(C[C@@H]2CC[C@H]21)C[C@@]1(CCCc2cc(Cl)ccc21)CO3 [Example 40] : pIC50 is 10.00

Summary for this compound, CO[C@H]1/C=C/C[C@H](C)C[S@@](=O)(NC(=O)N2CCC(C(F)F)CC2)=NC(=O)c2ccc3c(c2)N(C[C@@H]2CC[C@H]21)C[C@@]1(CCCc2cc(Cl)ccc21)CO3 [Example 258] : pIC50 is 9.93

Summary for this compound, COc1nn(C)cc1C(=O)N[S@@]1(=O)=NC(=O)c2ccc3c(c2)N(C[C@@H]2CC[C@H]2[C@@H](OC(=O)N(C)C)/C=C/C[C@H](C)C1)C[C@@]1(CCCc2cc(Cl)ccc21)CO3 [Example 404] : pIC50 is 10.04

Summary for this compound, CO[C@H]1/C=C/C[C@H](C)C[S@@](=O)(NC(=O)C2CC3(CCOC3)C2)=NC(=O)c2ccc3c(c2)N(C[C@@H]2CC[C@H]21)C[C@@]1(CCCc2cc(Cl)ccc21)CO3 (stereo partly shown) [Example 125] : pIC50 is 10.13

Summary for this compound, CO[C@H]1/C=C/C[C@H](C)C[S@@](=O)(NC(=O)N[C@@H]2CC23CCOC3)=NC(=O)c2ccc3c(c2)N(C[C@@H]2CC[C@H]21)C[C@@]1(CCCc2cc(Cl)ccc21)CO3 (single isomer, unassigned) [Example 342] : pIC50 is 10.54

Summary for this compound, COC1CC2(C1)CN(C(=O)N[S@@]1(=O)=NC(=O)c3ccc4c(c3)N(C[C@@H]3CC[C@H]3[C@@H](OC)/C=C/C[C@H](C)C1)C[C@@]1(CCCc3cc(Cl)ccc31)CO4)C2 [Example 257] : pIC50 is 10.08

Summary for this compound, CO[C@H]1/C=C/C[C@H](C)C[S@@](=O)(NC(=O)N[C@H]2C[C@H]2OC)=NC(=O)c2ccc3c(c2)N(C[C@@H]2CC[C@H]21)C[C@@]1(CCCc2cc(Cl)ccc21)CO3 [Example 317] : pIC50 is 10.47

Summary for this compound, CO[C@H]1/C=C/C[C@H](C)C[S@@](=O)(NC(=O)N[C@H]2C[C@@H](OC)C2)=NC(=O)c2ccc3c(c2)N(C[C@@H]2CC[C@H]21)C[C@@]1(CCCc2cc(Cl)ccc21)CO3 [Example 149] : pIC50 is 9.96

* * *

Target: MCL-1/Bim interaction (recombinant human MCL-1 protein, residues 171-327; biotinylated human Bim peptide, residues 51-76) (Homo sapiens (Human), UniProt Q07820)
Experiment: MCL-1/Bim Binding AlphaLISA Assay
Conditions: 0.0625 nM 6xHis-Mcl-1 (171-327), 0.0625 nM biotinylated-Bim peptide
Property measured: pIC50
pIC50 field: float, defined as -log10 of concentration (mol/L).

# Compound, Result
data = [
    ("COCC1CN(C(=O)N[S@@]2(=O)=NC(=O)c3ccc4c(c3)N(C[C@@H]3CC[C@H]3[C@@H](OC)/C=C/C[C@H](C)C2)C[C@@]2(CCCc3cc(Cl)ccc32)CO4)C1", 10.51),
]

Summary for this compound, "CO[C@H]1/C=C/C[C@H](C)[C@@H](C)[S@@](=O)(NC(=O)c2cc3n(c2)C[C@H](C)OC3)=NC(=O)c2ccc3c(c2)N(C[C@@H]2CC[C@H]21)C[C@@]1(CCCc2cc(Cl)ccc21)CO3" : pIC50 is 9.46

Summary for this compound, CO[C@H]1/C=C/C[C@H](C)C[S@](N)(=O)=NC(=O)c2ccc3c(c2)N(C[C@@H]2CC[C@H]21)C[C@@]1(CCCc2cc(Cl)ccc21)CO3 (single isomer, unassigned) : pIC50 is 7.97

* * *

As shown below, each of these compounds has a reported pIC50 value.
Biological target: MCL-1/Bim interaction (recombinant human MCL-1 protein, residues 171-327; biotinylated human Bim peptide, residues 51-76) (Homo sapiens (Human), UniProt Q07820)
Assay: MCL-1/Bim Binding AlphaLISA Assay
Details: 0.0625 nM 6xHis-Mcl-1 (171-327), 0.0625 nM biotinylated-Bim peptide
pIC50 field: float, defined as -log10 of concentration (mol/L).

# example entries with known answers
# Query smiles, Property measured, Result
data = [
    ("COc1nnccc1C(=O)N[S@@]1(=O)=NC(=O)c2ccc3c(c2)N(C[C@@H]2CC[C@H]2[C@@H](OC)/C=C/C[C@H](C)C1)C[C@@]1(CCCc2cc(Cl)ccc21)CO3", "pIC50", 10.10),
    ("CO[C@H]1/C=C/C[C@H](C)C[S@@](=O)(NC(=O)c2cc3n(c2)CCOC3)=NC(=O)c2ccc3c(c2)N(C[C@@H]2CC[C@H]21)C[C@@]1(CCCc2cc(Cl)ccc21)CO3", "pIC50", 9.94),
    ("CO[C@H]1/C=C/CCC[S@@](=O)(NC(=O)CCc2cnn(C)n2)=NC(=O)c2ccc3c(c2)N(C[C@@H]2CC[C@H]21)C[C@@]1(CCCc2cc(Cl)ccc21)CO3", "pIC50", 10.00),
    ("CO[C@H]1/C=C/CCC[S@@](=O)(NC(=O)CCc2nnc(C)o2)=NC(=O)c2ccc3c(c2)N(C[C@@H]2CC[C@H]21)C[C@@]1(CCCc2cc(Cl)ccc21)CO3", "pIC50", 9.70),
    ("COC(=O)c1cc(C(=O)N[S@@]2(=O)=NC(=O)c3ccc4c(c3)N(C[C@@H]3CC[C@H]3[C@@H](OC)/C=C/C[C@H](C)C2)C[C@@]2(CCCc3cc(Cl)ccc32)CO4)cn1C", "pIC50", 9.94),
]

Now turn to the next compound.
Summary for this compound, "CO[C@H]1/C=C/C[C@H](C)C[S@@](=O)(NC(=O)N2C[C@@H](OC)[C@@H]2C)=NC(=O)c2ccc3c(c2)N(C[C@@H]2CC[C@H]21)C[C@@]1(CCCc2cc(Cl)ccc21)CO3" : pIC50 is 10.43
